Attribution: PubChem BioAssay AID2060616

Listing: viability, T/C of selected molecules
- Test system: 377384-186-R-J1-PDC complex spheroid viability
- assayDetails: Anticancer human tumor 377384-186-R-J1-PDC patient-derived pancreatic carcinoma cell line growth inhibition [CLK]
- cond: second compound 0.0316 µM; first compound 0.0949 µM; stronger effect = lower value
Note: unit % is implicit; provide only the numeric part.

CC(C)CC(NC(=O)C(Cc1ccccc1)NC(=O)c1cnccn1)B(O)O (stereo not drawn) + CN1CCN(c2cc(C(=O)Nc3cc4cc(-c5cnn(C)c5)ccc4cn3)ccn2)CC1 = 0.25
C=CC(=O)Nc1cc(Nc2nccc(-c3cn(C)c4ccccc34)n2)c(OC)cc1N(C)CCN(C)C + CNC(=O)c1ccc(Nc2nc(OC3CCCC3)c3c(-c4ccc5nc(C)oc5c4)c[nH]c3n2)c(OC)c1 = 86.3

# evaluate next
Task item: So what does the record say about viability, T/C for C=CC(=O)Nc1cc(Nc2nccc(-c3cn(C)c4ccccc34)n2)c(OC)cc1N(C)CCN(C)C + CN1CCN(c2cc(C(=O)Nc3cc4cc(-c5cnn(C)c5)ccc4cn3)ccn2)CC1 ?
Reply: 79.5

====

- Test system: 377384-186-R-J1-PDC complex spheroid viability
- assayDetails: Anticancer human tumor 377384-186-R-J1-PDC cell line growth inhibition [CLK];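 note: spheroids exposed to agents for 7 days before reading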;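 for viability, T/C: luminescence signal used as a stand-in for viable cells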
- cond: second compound 0.0316 µM; first compound 0.0949 µM; stronger effect = lower value
measuredQuantity: viability, T/C (%)
Note: unit % is implicit; provide only the numeric part.

Some compounds with known viability, T/C results, for comparison:
NC(=O)C(=Cn1cnc(-c2cc(C(F)(F)F)cc(C(F)(F)F)c2)n1)c1cncnc1 + CN1CCN(c2cc(C(=O)Nc3cc4cc(-c5cnn(C)c5)ccc4cn3)ccn2)CC1 = 50.1
NC(=O)C(=Cn1cnc(-c2cc(C(F)(F)F)cc(C(F)(F)F)c2)n1)c1cncnc1 + CNC(=O)c1ccc(Nc2nc(OC3CCCC3)c3c(-c4ccc5nc(C)oc5c4)c[nH]c3n2)c(OC)c1 = 40.4

Task item: So what does the record say about viability, T/C for CC(C)CC(NC(=O)C(Cc1ccccc1)NC(=O)c1cnccn1)B(O)O (stereo not drawn) + CNC(=O)c1ccc(Nc2nc(OC3CCCC3)c3c(-c4ccc5nc(C)oc5c4)c[nH]c3n2)c(OC)c1 ?
Reply: 0.17

====

- Tested on: 377384-186-R-J1-PDC complex spheroid viability
- assayDetails: Anticancer human tumor 377384-186-R-J1-PDC cell line growth inhibition [CLK];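 note: spheroids exposed to agents for 7 days before reading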;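 for viability, T/C: luminescence signal used as a stand-in for viable cells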
- cond: second compound 0.1 µM; first compound 0.3 µM; stronger effect = lower value
measuredQuantity: viability, T/C

NC(=O)C(=Cn1cnc(-c2cc(C(F)(F)F)cc(C(F)(F)F)c2)n1)c1cncnc1 + CN1CCN(c2cc(C(=O)Nc3cc4cc(-c5cnn(C)c5)ccc4cn3)ccn2)CC1 = 14.3%
NC(=O)C(=Cn1cnc(-c2cc(C(F)(F)F)cc(C(F)(F)F)c2)n1)c1cncnc1 + CNC(=O)c1ccc(Nc2nc(OC3CCCC3)c3c(-c4ccc5nc(C)oc5c4)c[nH]c3n2)c(OC)c1 = 16.1%

# evaluate next
Task item: So what does the record say about viability, T/C for C=CC(=O)Nc1cc(Nc2nccc(-c3cn(C)c4ccccc34)n2)c(OC)cc1N(C)CCN(C)C + CNC(=O)c1ccc(Nc2nc(OC3CCCC3)c3c(-c4ccc5nc(C)oc5c4)c[nH]c3n2)c(OC)c1 ?
Reply: 29.7%

====

- Test system: 377384-186-R-J1-PDC complex spheroid viability
- assayDetails: Anticancer human tumor 377384-186-R-J1-PDC cell line growth inhibition [CLK]; active = viability on the fitted dose curve at most 10% of control; inactive = the rest;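 note: spheroids exposed to agents for 7 days before reading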
- cond: second compound 1 µM; first compound 0.0949 µM
Response enum: True for active, False for inactive

Past entries and their recorded results:
CC(C)CC(NC(=O)C(Cc1ccccc1)NC(=O)c1cnccn1)B(O)O (stereo unspecified) + CNC(=O)c1ccc(Nc2nc(OC3CCCC3)c3c(-c4ccc5nc(C)oc5c4)c[nH]c3n2)c(OC)c1 = True
NC(=O)C(=Cn1cnc(-c2cc(C(F)(F)F)cc(C(F)(F)F)c2)n1)c1cncnc1 + CNC(=O)c1ccc(Nc2nc(OC3CCCC3)c3c(-c4ccc5nc(C)oc5c4)c[nH]c3n2)c(OC)c1 = False
CC(C)CC(NC(=O)C(Cc1ccccc1)NC(=O)c1cnccn1)B(O)O (stereo unspecified) + CN1CCN(c2cc(C(=O)Nc3cc4cc(-c5cnn(C)c5)ccc4cn3)ccn2)CC1 = True
C=CC(=O)Nc1cc(Nc2nccc(-c3cn(C)c4ccccc34)n2)c(OC)cc1N(C)CCN(C)C + CNC(=O)c1ccc(Nc2nc(OC3CCCC3)c3c(-c4ccc5nc(C)oc5c4)c[nH]c3n2)c(OC)c1 = False
C=CC(=O)Nc1cc(Nc2nccc(-c3cn(C)c4ccccc34)n2)c(OC)cc1N(C)CCN(C)C + CN1CCN(c2cc(C(=O)Nc3cc4cc(-c5cnn(C)c5)ccc4cn3)ccn2)CC1 = True

# input for lookup
Task item: Outcome logged for NC(=O)C(=Cn1cnc(-c2cc(C(F)(F)F)cc(C(F)(F)F)c2)n1)c1cncnc1 + CN1CCN(c2cc(C(=O)Nc3cc4cc(-c5cnn(C)c5)ccc4cn3)ccn2)CC1 in this assay:
Reply: True

====

Listing: viability, T/C of selected molecules
- Tested on: 377384-186-R-J1-PDC complex spheroid viability
- assayDetails: Anticancer human tumor 377384-186-R-J1-PDC cell line growth inhibition [CLK];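 note: spheroids exposed to agents for 7 days before reading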;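 for viability, T/C: luminescence signal used as a stand-in for viable cells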
- cond: second compound 1 µM; first compound 1 µM; stronger effect = lower value
Note: unit % is implicit; provide only the numeric part.

CC1(C)CCC(CN2CCN(c3ccc(C(=O)NS(=O)(=O)c4ccc(NCC5CCOCC5)c([N+](=O)[O-])c4)c(Oc4cnc5[nH]ccc5c4)c3)CC2)=C(c2ccc(Cl)cc2)C1 + CN1CCN(c2cc(C(=O)Nc3cc4cc(-c5cnn(C)c5)ccc4cn3)ccn2)CC1 = 1.04
CCCS(=O)(=O)Nc1ccc(F)c(C(=O)c2c[nH]c3ncc(-c4ccc(Cl)cc4)cc23)c1F + CNC(=O)c1ccc(Nc2nc(OC3CCCC3)c3c(-c4ccc5nc(C)oc5c4)c[nH]c3n2)c(OC)c1 = 27

# evaluate next
Task item: Kindly state the measured viability, T/C obtained for CC(Nc1ccc2c(c1)OCCn1cc(N3C(=O)OCC3C(F)F)nc1-2)C(N)=O (stereo not drawn) + CN1CCN(c2cc(C(=O)Nc3cc4cc(-c5cnn(C)c5)ccc4cn3)ccn2)CC1 with 377384-186-R-J1-PDC complex spheroid viability.
Reply: 1.6

====

Listing: pIC50 of selected molecules
- Test system: 377384-186-R-J1-PDC complex spheroid viability
- assayDetails: Anticancer human tumor 377384-186-R-J1-PDC cell line growth inhibition [CLK];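 note: spheroids exposed to agents for 7 days before reading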
- cond: curve of first compound; second compound 1 µM
pIC50: −log10 of the molar value.

Some molecules with known pIC50 results, for comparison:
Nc1ccn(C2OC(CO)C(O)C2(F)F)c(=O)n1 (stereo not drawn) + CNC(=O)c1ccc(Nc2nc(OC3CCCC3)c3c(-c4ccc5nc(C)oc5c4)c[nH]c3n2)c(OC)c1 = > 7.50
COC1C=CCC(C)C(C)S(=O)(=O)NC(=O)c2ccc3c(c2)N(CC2CCC21)CC1(CCCc2cc(Cl)ccc21)CO3 (stereo not drawn) + CN1CCN(c2cc(C(=O)Nc3cc4cc(-c5cnn(C)c5)ccc4cn3)ccn2)CC1 = > 7.50

# evaluate next
Task item: So what does the record say about pIC50 for CCc1c2c(nc3ccc(O)cc13)-c1cc3c(c(=O)n1C2)COC(=O)[C@]3(O)CC + CN1CCN(c2cc(C(=O)Nc3cc4cc(-c5cnn(C)c5)ccc4cn3)ccn2)CC1 ?
Reply: > 8.50

====

- Test system: 377384-186-R-J1-PDC complex spheroid viability
- assayDetails: Anticancer human tumor 377384-186-R-J1-PDC cell line growth inhibition [CLK];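 note: spheroids exposed to agents for 7 days before reading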;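 for viability, T/C: luminescence signal used as a stand-in for viable cells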
- cond: second compound 1 µM; first compound 10 µM; stronger effect = lower value
- Excerpt: A high-throughput screen of multi-cell type tumor spheroids was designed to identify active combinations of […] and targeted small molecules. Complex spheroids include a stromal component modeled by human endothelial cells (HUVEC) and fibroblasts modeled by human mesenchymal stem cells (MSCs). […] Compounds. […] If the clinical Cmax for an agent had not been determined, the highest concentration tested was 10 microM. […]
measuredQuantity: viability, T/C (%)
Note: unit % is implicit; provide only the numeric part.

Nc1ccn(C2OC(CO)C(O)C2(F)F)c(=O)n1 (stereo not drawn) + CNC(=O)c1ccc(Nc2nc(OC3CCCC3)c3c(-c4ccc5nc(C)oc5c4)c[nH]c3n2)c(OC)c1 = 1.24
COc1cccc2c1C(=O)c1c(O)c3c(c(O)c1C2=O)CC(O)(C(=O)CO)CC3OC1CC(N)C(O)C(C)O1 (stereo not drawn) + CN1CCN(c2cc(C(=O)Nc3cc4cc(-c5cnn(C)c5)ccc4cn3)ccn2)CC1 = 8.63

Task item: So what does the record say about viability, T/C for COC1C=CCC(C)C(C)S(=O)(=O)NC(=O)c2ccc3c(c2)N(CC2CCC21)CC1(CCCc2cc(Cl)ccc21)CO3 (stereo not drawn) + CNC(=O)c1ccc(Nc2nc(OC3CCCC3)c3c(-c4ccc5nc(C)oc5c4)c[nH]c3n2)c(OC)c1 ?
Reply: 21.9
